The reported numbers originate from ChEMBL document CHEMBL1201862.

Each entry below carries its reported GI50.
# Test system: HOP-92
# procedure.text: NCI tumour cell line growth inhibition, 48 h
Calls of active or inactive are those of the source. Rule as the data show it: active = GI50 up to about 1.1 µM and inactive = higher.

Request: Request the reported GI50 associated with CCOC(=O)C1CCCC1S(=O)(=O)c1ccc(C)cc1 (stereo not given)
Result: > 100 µM (inactive)

Request: // GI50 lookup, key: COC1CCC(O)C(CO)O1 (stereo not given)
Result: > 100 µM (inactive)

Request: Look up GI50 for this molecule: "CN(C)CCCNC(=O)N/N=C/c1ccccn1"
Result: > 10 µM (inactive)

Request: # input molecule: "Fc1cc(C2=C[C@H](c3ccc4c(c3)OCO4)NC(=S)N2)c(Cl)cc1Cl" ; wanted: its GI50
Result: 25.9 µM (inactive)

Request: Can you look up the measured GI50 of CCCCCCCCCCCC(=O)OCC1OC(n2cc(F)c(=O)[nH]c2=O)C(NC(=O)OCc2ccccc2)C(OC(=O)CCCCCCCCCCC)C1O (stereo not given) for me?
Result: > 100 µM (inactive)

Further cases:
Request: Field request: GI50 | item: CC1=C(N2CC2)C(=O)c2nc3n(c2C1=O)CCC3O (stereo not given)
Result: 2.23 µM (inactive)

Request: Quick one: GI50 of COc1ccc(/C=C2\CN(C)CC3C2=NN(c2ccccc2)C3c2ccc(OC)cc2)cc1 (stereo not given) ?
Result: 28 µM (inactive)

Request: Entry under review: "O=C1O[C@H](COC(=O)c2ccccc2)[C@@H](OC(=O)c2ccccc2)C=C1OC(=O)c1ccccc1" . Reported GI50?
Result: 21.8 µM (inactive)

Request: Item under review: COC(=O)c1c2c(cc3c1CC1(Cc4cc5c(c(C=O)c4C1)CCCC5)C3)CCCC2 (stereo not given) . Reported GI50?
Result: 56.6 µM (inactive)

Request: Which GI50 value belongs to "N#CC(=C1C=CC(=NO)C=C1)c1ccc(Cl)cc1" ?
Result: 20 µM (inactive)

---

Quick reference: GI50 of the listed items.
# Tested on: MDA-MB-435
# procedure.text: NCI tumour cell line growth inhibition, 48 h
The source made the active and inactive calls. Cut-off read from the data, not from the text of the source: active = GI50 up to about 1.1 µM and inactive = higher.

For orientation, consider the following solved cases.
Request: Which measured GI50 value corresponds to "Fc1cc(C2=C[C@H](c3ccc4c(c3)OCO4)NC(=S)N2)c(Cl)cc1Cl" ?
Result: 34.6 µM (inactive)

Request: Look at this compound and give its reported GI50. "O=c1[nH]nc(-c2ccccc2)n1/N=C\c1ccccc1"
Result: > 100 µM (inactive)

Request: What value of measured GI50 is listed for CC(=O)C12C[C@](C#N)(N3CCCCCC3)C1C=Cc1ccccc12 (stereo partly specified) ?
Result: > 100 µM (inactive)

Request: Any idea what GI50 was measured for COC(=O)C1=CSC2(S1)C(C(=O)OC)=CSc1c2ssc1=O (stereo unspecified) ?
Result: 1.72 µM (inactive)

Request: For the compound shown here, "Cc1nc2ccccc2n1Cc1nnc(-c2ccccc2)o1" , give the reported GI50.
Result: 0.104 µM (active)

More entries:
Request: Field request: GI50 | item: CC(NNC(=O)c1cc[n+]([BH2-]C#N)cc1)c1ccccc1F (stereo unspecified)
Result: > 100 µM (inactive)

Request: Returns the measured GI50 for the input compound. Input: "COc1ccc(NC(=S)c2ccc(CN3CCCCC3)s2)cc1"
Result: 19.6 µM (inactive)

Request: Fill blank: measured GI50 of the compound "O=c1[nH]c2nccn2c2c1SCCN2" is ____.
Result: > 100 µM (inactive)

Request: Report GI50 for COC(=O)c1c(CC(Cc2ccc3c(c2)CCCC3)C(=O)OC)ccc2c1CCCC2 (stereo unspecified) please.
Result: 42.4 µM (inactive)

Request: Look up GI50: "C[n+]1c(-c2ccc(/C=N\NC(=O)c3ccc(C(=O)N/N=C/c4ccc(-c5cn6ccsc6[n+]5C)cc4)cc3)cc2)cn2ccsc21"
Result: 15.8 µM (inactive)

Request: Give the measured GI50 of COc1cc(C2c3cc4c(cc3OC(NN)C2C)OCO4)cc(OC)c1O (stereo unspecified) .
Result: 2.32 µM (inactive)

Request: State the recorded GI50 for this entry: "CC1=CC(=O)/C(=C(/C)NCCN(CCN/C(C)=C2\C(=O)C=C(C)OC2=O)CCN/C(C)=C2\C(=O)C=C(C)OC2=O)C(=O)O1"
Result: > 100 µM (inactive)
